# ASSAY EXPLANATION: RAM signaling pathway blockade in yeast – S. cerevisiae, Pdr1DBD-CYC8 efflux-inhibited sensitized strain, primary screen (AID 1298);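 note: 0% = DMSO untreated cells without growth and 100% = 10 µM 1-NA-PP1 full growth; higher means more yeast growth rescued from 5-FOA killing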
# DETAILS: S. cerevisiae cbk1-as DSE1-URA3 strain, 5-FOA growth OD615, 2 d; at 50 µM; active compounds read high
MEASURED PROPERTY: RAM network inhibition (%)
Give bare numbers, in %.

See these solved cases before continuing.
> print(dat)
                                   molecule  experimental.value
1  COc1ccccc1N1CCN(C(CNC(=O)C2CCCCC2)c2cccnc2)CC1 (stereo unspecified)                3.85
2  Cc1ccn2cc(-c3ccc(S(=O)(=O)N4CCOCC4)cc3)nc2c1                1.79
3        O=C(OCN1C(=O)c2ccccc2C1=O)C1CCCCC1                0.77
4       O=C(CN1C(=O)CSc2ncccc21)NCCN1CCOCC1                3.41
5  O=C(CCCn1c(=O)[nH]c2ccsc2c1=O)N1CCN(c2ccccn2)CC1                4.21

Record RAM network inhibition per entry; entries follow.
1. COC(=O)c1cn(NC(=O)C2CCCO2)c(=O)c2ccccc12 (stereo unspecified)
2. CC1CCN(CC(=O)N2c3ccccc3CCc3ccccc32)CC1
3. Cn1nnnc1SCC(=O)N1CCN(c2ccccc2)CC1
4. Cc1nc2ccc(S(=O)(=O)NC(C(=O)N3CCn4c3nc3ccccc34)C(C)C)cc2s1 (stereo unspecified)
5. COCCNC(=O)c1cc(-c2cccs2)on1
6. CCOc1ccc(NC(=O)c2cnc3scc(C)n3c2=O)cc1

1: 3; 2: 4.24; 3: 1.14; 4: 5.83; 5: 3.61; 6: 8.45
